The reported numbers originate from ChEMBL document CHEMBL6178019.

# inhibition at 12 h, 5 µM per record follows
Target: CYP1A1 (Homo sapiens, UniProt P04798)
Experiment: Inhibition of CYP1A1 in human Caco-2 cells at 5 uM incubated for 12 hrs by EROD assay relative to control
Format: cell-based

Below, each entry is followed by its recorded inhibition at 12 h, 5 µM result.
smiles_data	property_name	reported_value
Cn1c(=O)n(C)c2cc(C(=O)/C=C/c3ccsc3)ccc21	inhibition at 12 h, 5 µM	~80%
Cn1c(=O)n(C)c2cc(C(=O)/C=C/c3cccs3)ccc21	inhibition at 12 h, 5 µM	~80%

Next up:
# lookup: Cn1c(=O)n(C)c2cc(C(=O)/C=C/c3ccccc3F)ccc21 on CYP1A1 (Homo sapiens, UniProt P04798), inhibition at 12 h, 5 µM = 100%

----------
Biological target: UniProt P04798
Sequence (P04798 whole entry): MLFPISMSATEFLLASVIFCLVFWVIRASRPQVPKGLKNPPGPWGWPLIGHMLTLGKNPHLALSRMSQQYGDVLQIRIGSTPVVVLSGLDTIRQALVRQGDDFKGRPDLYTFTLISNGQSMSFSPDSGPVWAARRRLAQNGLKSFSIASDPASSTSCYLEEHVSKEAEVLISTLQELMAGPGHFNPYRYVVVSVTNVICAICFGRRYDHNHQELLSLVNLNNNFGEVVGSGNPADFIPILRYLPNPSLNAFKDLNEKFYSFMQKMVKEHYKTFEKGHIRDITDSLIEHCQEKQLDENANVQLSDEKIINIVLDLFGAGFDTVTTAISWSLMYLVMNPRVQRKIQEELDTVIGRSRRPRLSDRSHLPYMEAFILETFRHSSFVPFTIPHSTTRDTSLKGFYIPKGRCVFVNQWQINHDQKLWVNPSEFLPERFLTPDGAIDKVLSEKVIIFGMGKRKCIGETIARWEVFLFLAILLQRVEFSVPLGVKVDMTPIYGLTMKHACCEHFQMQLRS
Test: Inhibition of CYP1A1 in human Caco-2 cells assessed as relative activity by measuring fold change at 5.0 uM incubated for 12 hrs by EROD assay relative to control
Format: cell-based
Conditions: caco-2, 12 h
property_name: fold change (FC)

Guide cases for fold change (FC), answers given:
smiles_data	fold change (FC)
Cn1c(=O)n(C)c2cc(C(=O)/C=C/c3ccc(I)o3)ccc21	0.18
C#Cc1ccc(/C=C/C(=O)c2ccc(NC(C)=O)cc2)cc1	0.43
C#Cc1ccc(/C=C/C(=O)c2ccc(N(C)C(C)=O)cc2)cc1	0.78

I = Cn1cccc1/C=C/C(=O)c1ccc2c(c1)n(C)c(=O)n2C
II = CSc1ccc(/C=C/C(=O)c2ccc3c(c2)n(C)c(=O)n3C)cc1
Two entries are listed, I and II . Which one carries the higher fold change (FC)? When you have decided, please share the label of that item.
II

1 = Cc1ccc(/C=C/C(=O)c2ccc3c(c2)n(C)c(=O)n3C)cn1
2 = Cn1c(=O)n(C)c2cc(C(=O)/C=C/c3coc4ccccc34)ccc21
3 = Cn1c(=O)n(C)c2cc(C(=O)/C=C/c3ccc4ccccc4c3)ccc21
Thanks in advance: please rank these 3 entries by fold change (FC), highest to lowest. Lab note: record answer as labels in requested order.
2, 3, 1
(2: 0.9, 3: 0.47, 1: 0.08)

I = Cn1c(=O)n(C)c2cc(C(=O)/C=C/c3cccc(OC(F)(F)F)c3)ccc21
II = Cn1c(=O)n(C)c2cc(C(=O)/C=C/c3cccnc3)ccc21
III = Cn1c(=O)n(C)c2cc(C(=O)/C=C/C#Cc3ccccc3)ccc21
List the 3 entries from lowest fold change (FC) to highest fold change (FC) value. # list labels per requested ordering
I, III, II
(I: 0.17, III: 0.39, II: 0.93)

1 = Cn1c(=O)n(C)c2cc(C(=O)/C=C/c3ccccc3P(c3ccccc3)c3ccccc3)ccc21
2 = Cn1c(=O)n(C)c2cc(C(=O)/C=C/c3cccn3C(=O)OC(C)(C)C)ccc21
Field: lower recorded fold change (FC) (choose 1 or 2 ) State the label of the item chosen.
1
(1: 0.16, 2: 0.67)

----------
inhibition at 12 h, 5 µM values for the molecules below.
Target: CYP1A1 (Mus musculus, UniProt P00184)
Sequence (P00184 whole entry): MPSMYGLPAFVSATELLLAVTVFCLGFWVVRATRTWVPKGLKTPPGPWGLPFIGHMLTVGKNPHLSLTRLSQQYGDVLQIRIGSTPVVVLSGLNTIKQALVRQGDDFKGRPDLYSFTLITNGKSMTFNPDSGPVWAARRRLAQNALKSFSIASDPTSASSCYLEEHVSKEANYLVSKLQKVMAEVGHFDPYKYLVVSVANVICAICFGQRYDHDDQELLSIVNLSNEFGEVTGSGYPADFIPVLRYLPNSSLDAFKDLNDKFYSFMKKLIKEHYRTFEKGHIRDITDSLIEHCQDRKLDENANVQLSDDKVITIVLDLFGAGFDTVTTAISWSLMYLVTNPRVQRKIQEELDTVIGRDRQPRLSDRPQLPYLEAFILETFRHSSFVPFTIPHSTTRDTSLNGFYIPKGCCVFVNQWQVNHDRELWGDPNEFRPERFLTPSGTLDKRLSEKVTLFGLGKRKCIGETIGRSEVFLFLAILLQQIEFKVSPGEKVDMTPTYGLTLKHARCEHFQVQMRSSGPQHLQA
Assay: Inhibition of CYP1A1 in mouse RAW264.7 cells at 5 uM incubated for 12 hrs by EROD assay relative to control
Type: cell-based

smiles_data	measurement_target	inhibition at 12 h, 5 µM
Cn1c(=O)n(C)c2cc(C(=O)/C=C/c3cccs3)ccc21	CYP1A1 (Mus musculus, UniProt P00184)	~80%

# context switch: different molecule, same inhibition at 12 h, 5 µM
Entry Cn1c(=O)n(C)c2cc(C(=O)/C=C/c3ccsc3)ccc21 — recorded inhibition at 12 h, 5 µM = ~80%

----------
Molecular target: CYP1A1 (Homo sapiens)
Sequence (P04798 whole entry): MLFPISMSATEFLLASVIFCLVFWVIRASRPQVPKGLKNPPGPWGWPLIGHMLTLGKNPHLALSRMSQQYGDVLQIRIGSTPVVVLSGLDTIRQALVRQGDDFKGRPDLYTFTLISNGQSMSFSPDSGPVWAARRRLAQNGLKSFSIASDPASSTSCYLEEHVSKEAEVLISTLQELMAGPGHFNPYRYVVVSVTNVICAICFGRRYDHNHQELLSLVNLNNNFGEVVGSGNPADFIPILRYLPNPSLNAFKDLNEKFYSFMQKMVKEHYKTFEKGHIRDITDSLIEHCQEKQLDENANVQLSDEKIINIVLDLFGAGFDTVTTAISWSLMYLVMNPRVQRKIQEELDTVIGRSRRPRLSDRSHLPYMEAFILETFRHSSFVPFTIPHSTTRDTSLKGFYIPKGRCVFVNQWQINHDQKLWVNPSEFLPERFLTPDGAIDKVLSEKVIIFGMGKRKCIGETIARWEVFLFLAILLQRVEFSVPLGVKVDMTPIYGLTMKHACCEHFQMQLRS
Assay: Inhibition of CYP1A1 in human Caco-2 cells assessed as relative activity by measuring fold change at 500 nM incubated for 12 hrs by EROD assay relative to control
Type: cell-based
Conditions: read-out: FC
property_name: fold induction at 12 h, 0.5 µM

smiles_data	property_name	reported_value
Cn1c(=O)n(C)c2cc(C(=O)/C=C/c3ccccc3P(c3ccccc3)c3ccccc3)ccc21	fold induction at 12 h, 0.5 µM	0.72
Cn1c(=O)n(C)c2cc(C(=O)/C=C/c3ccco3)ccc21	fold induction at 12 h, 0.5 µM	0.87
Cn1c(=O)n(C)c2cc(C(=O)/C=C/c3ccc(F)cc3Cl)ccc21	fold induction at 12 h, 0.5 µM	0.84
Cn1cc(/C=C/C(=O)c2ccc3c(c2)n(C)c(=O)n3C)c2ccccc21	fold induction at 12 h, 0.5 µM	0.25
Cn1c(=O)n(C)c2cc(C(=O)/C=C/c3ccc(F)cc3)ccc21	fold induction at 12 h, 0.5 µM	0.47
Cn1c(=O)n(C)c2cc(C(=O)/C=C/c3ccc(C#N)cc3)ccc21	fold induction at 12 h, 0.5 µM	0.83
Cn1c(=O)n(C)c2cc(C(=O)/C=C/c3ccc(O[Si](C)(C)C(C)(C)C)cc3)ccc21	fold induction at 12 h, 0.5 µM	0.69

A = Cn1c(=O)n(C)c2cc(C(=O)/C=C/C=C/c3ccc(F)cc3)ccc21
B = CC(C)=CCC/C(C)=C/COc1c2ccoc2cc2oc(=O)ccc12
C = Cn1c(=O)n(C)c2cc(C(=O)/C=C/c3ccncc3)ccc21
Order by fold induction at 12 h, 0.5 µM, ascending. Respond with an ordered listing of the labels, as requested.
B, A, C
(B: 0.19, A: 0.62, C: 2.34)

----------
Biological target: CYP1A1 (Homo sapiens, UniProt P04798)
Sequence (P04798 whole entry): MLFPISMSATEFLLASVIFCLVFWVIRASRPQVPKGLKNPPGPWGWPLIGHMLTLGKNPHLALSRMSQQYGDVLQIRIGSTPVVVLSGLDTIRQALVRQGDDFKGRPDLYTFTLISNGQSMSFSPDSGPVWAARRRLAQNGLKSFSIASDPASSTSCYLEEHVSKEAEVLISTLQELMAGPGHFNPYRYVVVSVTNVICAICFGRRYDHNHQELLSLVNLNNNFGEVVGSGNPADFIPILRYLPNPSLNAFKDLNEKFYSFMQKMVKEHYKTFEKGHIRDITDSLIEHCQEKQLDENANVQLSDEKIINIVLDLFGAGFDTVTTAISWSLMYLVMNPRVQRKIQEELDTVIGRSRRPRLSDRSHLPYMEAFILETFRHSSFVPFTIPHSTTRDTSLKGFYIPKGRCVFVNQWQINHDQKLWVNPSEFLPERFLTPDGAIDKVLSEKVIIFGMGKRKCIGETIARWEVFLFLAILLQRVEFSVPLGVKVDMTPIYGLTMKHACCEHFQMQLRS
Test: Inhibition of CYP1A1 in human Caco-2 cells assessed as relative activity by measuring fold change at 500 nM incubated for 12 hrs by EROD assay relative to control
Assay type: cell-based
Settings: read-out: FC
property_name: fold induction at 12 h, 0.5 µM

Before answering, review these 8 worked examples.
smiles_data	fold induction at 12 h, 0.5 µM
C#Cc1ccc(/C=C/C(=O)c2ccc(NC(C)=O)cc2)cc1	0.76
CCCCOc1ccc(/C=C/C(=O)c2ccc3c(c2)n(C)c(=O)n3C)cc1	0.91
Cn1c(=O)n(C)c2cc(C(=O)/C=C/C#C[Si](C)(C)C)ccc21	0.66
COc1ccc2c(c1)c(/C=C/C(=O)c1ccc3c(c1)n(C)c(=O)n3C)cn2Cc1ccccc1	1.14
Cn1c(=O)n(C)c2cc(C(=O)/C=C/c3ccc(F)cc3F)ccc21	0.68
Cn1c(=O)n(C)c2cc(C(=O)/C=C/c3ccccn3)ccc21	0.83
Cn1c(=O)n(C)c2cc(C(=O)/C=C/c3cccn3C(=O)OC(C)(C)C)ccc21	0.9
Cn1c(=O)n(C)c2cc(C(=O)/C=C/c3ccc(-c4ccccc4)cc3)ccc21	0.75

a = Cn1c(=O)n(C)c2cc(C(=O)/C=C/c3ccsc3)ccc21
b = Cc1ccc(/C=C/C(=O)c2ccc3c(c2)n(C)c(=O)n3C)cn1
fold induction at 12 h, 0.5 µM comparison. Which is larger, a or b ? Field: selected label. Fill in the label of the entry you choose.
b
(b: 0.66, a: 0.43)

a = Cn1c(=O)n(C)c2cc(C(=O)/C=C/c3cc(F)c(F)cc3F)ccc21
b = Cn1c(=O)n(C)c2cc(C(=O)/C=C/c3cccc(OC(F)(F)F)c3)ccc21
Compare the recorded fold induction at 12 h, 0.5 µM of a and b ; state which is larger. Choose, then provide that item's label.
b
(b: 0.58, a: 0.35)
